test: in vivo; conditions: mouse
Description: Clearance in wild type mouse
metric name: clearance (mL/min/kg)
Entry rule: numbers only, all in mL/min/kg.

Find the measured clearance of Cc1cc(C#N)cc2nc(-c3ccc(NC(=O)CN4CCN(c5ccc(C(F)(F)F)cc5)CC4)cc3)oc12 and report it.
25
